The origin of these recorded values is ChEMBL document CHEMBL1134411.

- Test system: T47D
- Protocol description: Growth inhibition against breast cancer line T-47-D
- Type: functional
- Conditions: Homo sapiens
Endpoint: GI50 (nM)

> print(dat)
                    record.smiles  unit.tag  test.value
1  Nc1ccc(-c2nc3cc(F)ccc3s2)cc1Cl        nM          40

A: Cc1cc(-c2nc3cccc(F)c3s2)ccc1N
B: Nc1ccc(-c2nc3cc(F)ccc3s2)cc1
IN: A or B : whose GI50 is greater? Write down the label of the entry you select.
OUT: B
(B: 260 nM, A: 20 nM)

---

- Tested on: HCC 2998
- Protocol description: Growth inhibition against colon cancer cell line HCC2998
- Assay type: functional
- Conditions: Homo sapiens
Endpoint: GI50 (µM)

Example compounds with recorded GI50:
> print(dat)
                   record.smiles  unit.tag  test.value
1  Cc1cc(-c2nc3cccc(F)c3s2)ccc1N        µM        13.8
2  Nc1ccc(-c2nc3ccc(F)cc3s2)cc1I        µM        0.32

a: Cc1cc(-c2nc3ccc(F)cc3s2)ccc1N
b: Nc1ccc(-c2nc3ccccc3s2)cc1C(F)(F)F
IN: a or b : whose GI50 is greater? Write down the label of the entry you select.
OUT: a
(a: 34.7 µM, b: 10.7 µM)

---

- Protocol description: Growth inhibition against ovarian cancer cell line IGROV1
- Format: functional
- Conditions: Homo sapiens, IGROV-1
Quick reference for GI50 among some molecules
Report as a plain number; the unit µM is understood.

What the record says about Cc1cc(-c2nc3ccc(F)cc3s2)ccc1N : GI50 is 1.3

What the record says about Nc1ccc(-c2nc3cc(F)ccc3s2)cc1 : GI50 is 11.5

What the record says about Cc1cc(-c2nc3cccc(F)c3s2)ccc1N : GI50 is 0.07

---

- System: HCC 2998
- Protocol description: Growth inhibition against colon cancer cell line HCC2998
- Assay type: functional
- Conditions: Homo sapiens
Quick reference for GI50 among some molecules

Example molecules with recorded GI50:
> print(dat)
                      record.smiles  test.value
1     Cc1cc(-c2nc3ccc(O)cc3s2)ccc1N    > 100 µM
2  Cc1cc(-c2nc3cc(F)c(F)cc3s2)ccc1N    > 100 µM
3     Cc1cc(-c2nc3c(F)cccc3s2)ccc1N    > 100 µM

Here is another molecule to look at.
What the record says about Nc1ccc(-c2nc3cc(F)ccc3s2)cc1I : GI50 is < 0.01 µM

---

- Test system: T47D
- Protocol description: Growth inhibition against breast cancer line T-47-D
- Assay type: functional
- Conditions: Homo sapiens
Endpoint: GI50 (nM)

Example compounds with recorded GI50:
> print(dat)
                       record.smiles  test.value
1         Cc1cc(-c2nc3ccccc3s2)ccc1N          20
2  Nc1ccc(-c2nc3ccccc3s2)cc1C(F)(F)F        5400
3      Nc1ccc(-c2nc3cc(F)ccc3s2)cc1I         130

a: Nc1ccc(-c2nc3cc(F)ccc3s2)cc1Br
b: Cc1cc(-c2nc3ccc(O)cc3s2)ccc1N
IN: a or b : whose GI50 is greater? Write down the label of the entry you select.
OUT: b
